- Experimental target: Leukotriene C4 synthase (Cavia porcellus);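 also: enzyme inhibition assay of leukotriene C4 synthase, using LTA4 as the substrate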; also: in other assays of this panel Not Active means under 50% inhibition at 10 µM
- Sequence (A6XA80 whole entry): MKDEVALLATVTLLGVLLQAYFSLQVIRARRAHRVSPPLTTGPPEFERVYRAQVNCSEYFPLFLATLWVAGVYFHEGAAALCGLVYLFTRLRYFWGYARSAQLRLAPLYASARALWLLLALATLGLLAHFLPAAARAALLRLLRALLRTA
- Method notes: biochemical
- Assay type: tissue-based, Lung
Quantity name: IC50

>>> measured_value("Cc1cc(NS(=O)(=O)c2ccc(N)cc2)no1")
"Not Active"
>>> measured_value("CN[C@H](CC(C)C)C(=O)N[C@H]1C(=O)N[C@@H](CC(N)=O)C(=O)N[C@H]2C(=O)N[C@H]3C(=O)N[C@H](C(=O)N[C@H](C(=O)O)c4cc(O)cc(O)c4-c4cc3ccc4O)[C@H](O)c3ccc(c(Cl)c3)Oc3cc2cc(c3O[C@@H]2O[C@H](CO)[C@@H](O)[C@H](O)[C@H]2O[C@H]2C[C@](C)(N)[C@H](O)[C@H](C)O2)Oc2ccc(cc2Cl)[C@H]1O")
"Not Active"
>>> measured_value("COC(=O)[C@H](c1ccccc1Cl)N1CCc2sccc2C1")
"Not Active"
>>> measured_value("CN1CCN2c3ccccc3Cc3ccccc3C2C1 (stereo unspecified)")
"Not Active"
>>> measured_value("NCC1(CC(=O)O)CCCCC1")
"Not Active"

Now for another entry.
Query CC(=O)S[C@@H]1CC2=CC(=O)CC[C@]2(C)[C@H]2CC[C@@]3(C)[C@@H](CC[C@@]34CCC(=O)O4)[C@H]12 yields IC50 of Not Active
